meta.source: paper PMC8113725

- measured_target: E. coli iPGM (Escherichia coli)
- method_notes: biochemical
- experimental_parameters: […]
Bridge positions count the residues as written; N and C are the ends. Square brackets hold non-standard residues; d marks the D form. Peptide text beside a SMILES is read from it. Phe(4-F) = N[C@@H](Cc1ccc(F)cc1)C(=O)O
property_name: IC50 (µM)
Numbers only, in µM.

Some entries whose results are on file:
1) CC(C)C[C@H](NC(=O)[C@H](Cc1ccc(O)cc1)NC(=O)[C@@H]1CSCC(=O)N[C@H](Cc2ccc(O)cc2)C(=O)N[C@@H](CC(=O)O)C(=O)N[C@@H](Cc2ccc(O)cc2)C(=O)N2CCC[C@H]2C(=O)NCC(=O)N[C@@H](CC(=O)O)C(=O)N[C@@H](Cc2ccc(O)cc2)C(=O)N1)C(=O)N[C@@H](Cc1ccc(O)cc1)C(=O)NCC(=O)NCC(=O)N[C@@H](CS)C(N)=O [Ce-2 T13G]	0.0994
2) CC(C)C[C@H](NC(=O)[C@H](Cc1ccc(O)cc1)NC(=O)[C@@H]1CSCC(=O)N[C@H](Cc2ccc(O)cc2)C(=O)N[C@@H](CC(=O)O)C(=O)N[C@@H](Cc2ccc(O)cc2)C(=O)N2CCC[C@H]2C(=O)NCC(=O)N[C@@H](CC(=O)O)C(=O)N[C@@H](Cc2ccc(F)cc2)C(=O)N1)C(=O)N[C@@H](Cc1ccc(O)cc1)C(=O)NCC(=O)N[C@H](C(=O)N[C@@H](CS)C(N)=O)[C@@H](C)O	12.8
3) CC(C)C[C@H](NC(=O)[C@H](Cc1ccc(O)cc1)NC(=O)[C@@H]1CSCC(=O)N[C@H](Cc2ccc(O)cc2)C(=O)N[C@@H](CC(=O)O)C(=O)N[C@@H](Cc2ccc(O)cc2)C(=O)N2CCC[C@H]2C(=O)NCC(=O)N[C@@H](CC(=O)O)C(=O)N[C@@H](Cc2ccc(O)cc2)C(=O)N1)C(=O)N[C@@H](Cc1ccc(O)cc1)C(=O)NCC(=O)N[C@H](C(=O)N[C@@H](CS)C(N)=O)[C@@H](C)O	0.129
4) CC(C)C[C@H](NC(=O)[C@H](Cc1ccc(O)cc1)NC(=O)[C@@H]1CSCC(=O)N[C@H](Cc2ccc(O)cc2)C(=O)N[C@@H](CC(=O)O)C(=O)N[C@@H](Cc2ccc(O)cc2)C(=O)N2CCC[C@H]2C(=O)NCC(=O)N[C@@H](CC(=O)O)C(=O)N[C@@H](Cc2ccccc2)C(=O)N1)C(=O)N[C@@H](Cc1ccc(O)cc1)C(=O)NCC(=O)N[C@H](C(=O)N[C@@H](CS)C(N)=O)[C@@H](C)O	1.17
5) CC(C)C[C@H](NC(=O)[C@H](Cc1ccc(O)cc1)NC(=O)[C@@H]1CSCC(=O)N[C@H](Cc2ccc(O)cc2)C(=O)N[C@@H](CC(=O)O)C(=O)N[C@@H](Cc2ccc(F)cc2)C(=O)N2CCC[C@H]2C(=O)NCC(=O)N[C@@H](CC(=O)O)C(=O)N[C@@H](Cc2ccc(O)cc2)C(=O)N1)C(=O)N[C@@H](Cc1ccc(O)cc1)C(=O)NCC(=O)N[C@H](C(=O)N[C@@H](CS)C(N)=O)[C@@H](C)O [Ce-2 Y3(4F)F] ({CH2CO}-[dY]D[Phe(4-F)]PGDYCYLYGTC-NH2; thioether N-8)	4.18

Batch of 5 molecules: report IC50 for each.
1. COc1ccc(C[C@H](NC(=O)[C@H](CC(C)C)NC(=O)[C@H](Cc2ccc(O)cc2)NC(=O)[C@@H]2CSCC(=O)N[C@H](Cc3ccc(O)cc3)C(=O)N[C@@H](CC(=O)O)C(=O)N[C@@H](Cc3ccc(O)cc3)C(=O)N3CCC[C@H]3C(=O)NCC(=O)N[C@@H](CC(=O)O)C(=O)N[C@@H](Cc3ccc(O)cc3)C(=O)N2)C(N)=O)cc1
2. CC(C)C[C@H](NC(=O)[C@H](Cc1ccc(O)cc1)NC(=O)[C@@H]1CSCC(=O)N[C@H](Cc2ccc(O)cc2)C(=O)N[C@@H](CC(=O)O)C(=O)N[C@@H](Cc2ccc(O)cc2)C(=O)N2CCC[C@H]2C(=O)N[C@@H](CC(C)C)C(=O)N[C@@H](CC(=O)O)C(=O)N[C@@H](Cc2ccc(O)cc2)C(=O)N1)C(=O)N[C@@H](Cc1ccc(O)cc1)C(N)=O
3. CC(C)C[C@H](NC(=O)[C@H](Cc1ccc(F)cc1)NC(=O)[C@@H]1CSCC(=O)N[C@H](Cc2ccc(O)cc2)C(=O)N[C@@H](CC(=O)O)C(=O)N[C@@H](Cc2ccc(O)cc2)C(=O)N2CCC[C@H]2C(=O)NCC(=O)N[C@@H](CC(=O)O)C(=O)N[C@@H](Cc2ccc(O)cc2)C(=O)N1)C(=O)N[C@@H](Cc1ccc(O)cc1)C(=O)NCC(=O)N[C@H](C(=O)N[C@@H](CS)C(N)=O)[C@@H](C)O [Ce-2 Y9(4F)F] ({CH2CO}-[dY]DYPGDYC[Phe(4-F)]LYGTC-NH2; thioether N-8)
4. CC(C)C[C@H](NC(=O)[C@H](Cc1ccc(O)cc1)NC(=O)[C@@H]1CSCC(=O)N[C@H](Cc2ccc(O)cc2)C(=O)N[C@@H](CC(=O)O)C(=O)N[C@@H](Cc2ccc(O)cc2)C(=O)N2CCC[C@H]2C(=O)NCC(=O)N[C@@H](CC(=O)O)C(=O)N[C@@H](Cc2ccc(O)cc2)C(=O)N1)C(=O)N[C@@H](Cc1ccc(O)cc1)C(=O)NCC(=O)N[C@H](C(=O)NO)[C@@H](C)O
5. COc1ccc(C[C@H]2NC(=O)CSC[C@@H](C(=O)N[C@@H](Cc3ccc(O)cc3)C(=O)N[C@@H](CC(C)C)C(=O)N[C@@H](Cc3ccc(O)cc3)C(N)=O)NC(=O)[C@H](Cc3ccc(O)cc3)NC(=O)[C@H](CC(=O)O)NC(=O)CNC(=O)[C@@H]3CCCN3C(=O)[C@H](Cc3ccc(O)cc3)NC(=O)[C@H](CC(=O)O)NC2=O)cc1

1: 12.8; 2: 13.2; 3: 6.93; 4: 14; 5: 18.7

---

Please go through the items and note down their IC50.
- measured_target: E. coli iPGM (Escherichia coli, UniProt P37689)
- Sequence (P37689 whole entry): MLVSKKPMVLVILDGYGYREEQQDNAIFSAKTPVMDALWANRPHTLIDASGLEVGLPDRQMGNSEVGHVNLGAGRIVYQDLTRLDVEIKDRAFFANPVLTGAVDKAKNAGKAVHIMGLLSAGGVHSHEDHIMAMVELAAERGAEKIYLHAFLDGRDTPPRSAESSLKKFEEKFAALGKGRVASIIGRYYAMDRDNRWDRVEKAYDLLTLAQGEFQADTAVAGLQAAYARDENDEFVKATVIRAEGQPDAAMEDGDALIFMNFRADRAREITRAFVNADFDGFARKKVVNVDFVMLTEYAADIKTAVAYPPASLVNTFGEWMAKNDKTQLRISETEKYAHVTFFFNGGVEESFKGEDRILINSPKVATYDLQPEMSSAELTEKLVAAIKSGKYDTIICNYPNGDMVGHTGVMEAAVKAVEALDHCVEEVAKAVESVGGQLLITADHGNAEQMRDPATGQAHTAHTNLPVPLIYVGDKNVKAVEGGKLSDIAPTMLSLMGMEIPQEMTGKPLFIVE
- method_notes: biochemical
- experimental_parameters: […]
Bridge positions count the residues as written; N and C are the ends. Square brackets hold non-standard residues; d marks the D form. Peptide text beside a SMILES is read from it.
Answers are plain numbers, in µM.

1. CC(C)C[C@H](NC(=O)[C@H](Cc1ccccc1)NC(=O)[C@@H]1CSCC(=O)N[C@H](Cc2ccc(O)cc2)C(=O)N[C@@H](CC(=O)O)C(=O)N[C@@H](Cc2ccc(O)cc2)C(=O)N2CCC[C@H]2C(=O)NCC(=O)N[C@@H](CC(=O)O)C(=O)N[C@@H](Cc2ccc(O)cc2)C(=O)N1)C(=O)N[C@@H](Cc1ccc(O)cc1)C(=O)NCC(=O)N[C@H](C(=O)N[C@@H](CS)C(N)=O)[C@@H](C)O [Ce-2 Y9F] ({CH2CO}-[dY]DYPGDYCFLYGTC-NH2; thioether N-8)	0.815
2. CC(C)C[C@H](NC(=O)[C@H](Cc1ccc(O)cc1)NC(=O)[C@@H]1CSCC(=O)N[C@H](Cc2ccc(O)cc2)C(=O)N[C@@H](CC(=O)O)C(=O)N[C@@H](Cc2ccc(O)cc2)C(=O)N[C@@H](C(C)C)C(=O)NCC(=O)N[C@@H](CC(=O)O)C(=O)N[C@@H](Cc2ccc(O)cc2)C(=O)N1)C(=O)N[C@@H](Cc1ccc(O)cc1)C(=O)NCC(=O)N[C@H](C(=O)N[C@@H](CS)C(N)=O)[C@@H](C)O	8.96

Turning now to a further record.
Item CC(C)C[C@H](NC(=O)[C@H](Cc1ccc(O)cc1)NC(=O)[C@@H]1CSCC(=O)N[C@H](Cc2ccc(O)cc2)C(=O)N[C@@H](CC(N)=O)C(=O)N[C@@H](Cc2ccc(O)cc2)C(=O)N2CCC[C@H]2C(=O)NCC(=O)N[C@@H](CC(=O)O)C(=O)N[C@@H](Cc2ccc(O)cc2)C(=O)N1)C(=O)N[C@@H](Cc1ccc(O)cc1)C(=O)NCC(=O)N[C@H](C(=O)N[C@@H](CS)C(N)=O)[C@@H](C)O [Ce-2 D2N] ({CH2CO}-[dY]NYPGDYCYLYGTC-NH2; thioether N-8) has what recorded IC50? 0.17

---

For each of the compounds below, state its IC50.
- measured_target: D. immitis iPGM (Dirofilaria immitis, UniProt F4ZE01)
- method_notes: biochemical
- experimental_parameters: Di iPGM Ave IC50 (M)
Bridge positions count the residues as written; N and C are the ends. Square brackets hold non-standard residues; d marks the D form. Peptide text beside a SMILES is read from it. Phe(4-F) = N[C@@H](Cc1ccc(F)cc1)C(=O)O
One number for each entry, in M.

1. CC(C)C[C@H](NC(=O)[C@H](Cc1ccc(F)cc1)NC(=O)[C@@H]1CSCC(=O)N[C@H](Cc2ccc(O)cc2)C(=O)N[C@@H](CC(=O)O)C(=O)N[C@@H](Cc2ccc(O)cc2)C(=O)N2CCC[C@H]2C(=O)NCC(=O)N[C@@H](CC(=O)O)C(=O)N[C@@H](Cc2ccc(O)cc2)C(=O)N1)C(=O)N[C@@H](Cc1ccc(O)cc1)C(=O)NCC(=O)N[C@H](C(=O)N[C@@H](CS)C(N)=O)[C@@H](C)O [Ce-2 Y9(4F)F] ({CH2CO}-[dY]DYPGDYC[Phe(4-F)]LYGTC-NH2; thioether N-8)	2.8e-09
2. CC(C)C[C@H](NC(=O)[C@H](Cc1ccc(O)cc1)NC(=O)[C@@H]1CSCC(=O)N[C@H](Cc2ccc(O)cc2)C(=O)N[C@@H](CCC(N)=O)C(=O)N[C@@H](Cc2ccc(O)cc2)C(=O)N2CCC[C@H]2C(=O)NCC(=O)N[C@@H](CC(=O)O)C(=O)N[C@@H](Cc2ccc(O)cc2)C(=O)N1)C(=O)N[C@@H](Cc1ccc(O)cc1)C(N)=O [Ce-2d D2Q]	3.31e-07
3. CC(C)C[C@H](NC(=O)[C@H](Cc1ccc(O)cc1)NC(=O)[C@@H]1CSCC(=O)N[C@H](Cc2ccc(O)cc2)C(=O)N[C@@H](CC(=O)O)C(=O)N[C@@H](Cc2ccccc2)C(=O)N2CCC[C@H]2C(=O)NCC(=O)N[C@@H](CC(=O)O)C(=O)N[C@@H](Cc2ccc(O)cc2)C(=O)N1)C(=O)N[C@@H](Cc1ccc(O)cc1)C(=O)NCC(=O)N[C@H](C(=O)N[C@@H](CS)C(N)=O)[C@@H](C)O [Ce-2 Y3F] ({CH2CO}-[dY]DFPGDYCYLYGTC-NH2; thioether N-8)	2.42e-09
4. CC(C)C[C@H](NC(=O)[C@H](Cc1ccc(O)cc1)NC(=O)[C@@H]1CSCC(=O)N[C@H](Cc2ccc(O)cc2)C(=O)N[C@@H](CC(=O)O)C(=O)N[C@@H](Cc2ccc(O)cc2)C(=O)N2CCC[C@H]2C(=O)N[C@@H](CCC(N)=O)C(=O)N[C@@H](CC(=O)O)C(=O)N[C@@H](Cc2ccc(O)cc2)C(=O)N1)C(=O)N[C@@H](Cc1ccc(O)cc1)C(N)=O [Ce-2d G5Q]	5.99e-06

Which IC50 is reported for this compound? CC(C)C[C@H](NC(=O)[C@H](Cc1ccc(O)cc1)NC(=O)[C@@H]1CSCC(=O)N[C@H](Cc2ccc(O)cc2)C(=O)N[C@@H](CC(=O)O)C(=O)N[C@@H](Cc2ccc(O)cc2)C(=O)N2CCC[C@H]2C(=O)NCC(=O)N[C@@H](CC(=O)O)C(=O)N[C@@H](Cc2ccc(O)cc2)C(=O)N1)C(=O)N[C@@H](Cc1ccc(O)cc1)C(=O)NCC(=O)N[C@H](C(=O)NO)[C@@H](C)O [Ce-2 C14NHOH] 2.55e-09
